- target: human Orexin type 1 receptors (Homo sapiens (Human))
- experimental.protocol: Intracellular calcium measurement (FLIPR), antagonism of Orexin-A at EC80 in CHO-hOX1 cells
# if measured Ki < 20 nM: TRUE  # else: FALSE

Challenge: Hi there! Is Ki for Cc1nc(C(=O)N2C3CC(C3)C(C)C2COc2nccc3ccccc23)c(-c2ccccc2)s1 (mixture of isomers) [Example 83] below 20 nM, do you know?
Response given: TRUE

Challenge: Hi there! Is Ki for Cc1nc(C(=O)N2C(COc3ccc(F)cn3)CC3CC2C3)c(-c2ccccc2)s1 (stereo not shown) [Example 24] below 20 nM, do you know?
Response given: FALSE

Challenge: Hi there! Is Ki for Cc1ccc(-c2ncccn2)c(C(=O)N2C(CCOc3ccc(F)cc3)CC3CC2C3)c1 (racemic) [Example 41] below 20 nM, do you know?
Response given: FALSE

Challenge: Hi there! Is Ki for Cc1ccc(-c2ncccn2)c(C(=O)N2C(COc3ccc(Cl)cc3)CC3CC2C3)c1 (stereo not shown) [Example 19] below 20 nM, do you know?
Response given: FALSE

Challenge: Hi there! Is Ki for Cc1nc(C(=O)N2C(COc3ccc(F)cc3)CC3CC2C3)c(-c2ccccc2)s1 (single isomer, unassigned) [Example 3] below 20 nM, do you know?
Response given: TRUE

Challenge: Hi there! Is Ki for Cc1ccc(-c2ncccn2)c(C(=O)N2C(COc3ccc(Cl)cn3)CC3CC2C3)c1 (single isomer, unassigned) [Example 33] below 20 nM, do you know?
Response given: FALSE

Challenge: Hi there! Is Ki for Cc1nc(C(=O)N2C3CC(C3)C(C)C2COc2ccc(F)cn2)c(-c2ccccc2)s1 (mixture of isomers) [Example 77] below 20 nM, do you know?
Response given: FALSE

====

Assign Ki to each entry below.
- target: human Orexin type 2 receptors (Homo sapiens (Human), UniProt O43614)
- Sequence (O43614 whole entry): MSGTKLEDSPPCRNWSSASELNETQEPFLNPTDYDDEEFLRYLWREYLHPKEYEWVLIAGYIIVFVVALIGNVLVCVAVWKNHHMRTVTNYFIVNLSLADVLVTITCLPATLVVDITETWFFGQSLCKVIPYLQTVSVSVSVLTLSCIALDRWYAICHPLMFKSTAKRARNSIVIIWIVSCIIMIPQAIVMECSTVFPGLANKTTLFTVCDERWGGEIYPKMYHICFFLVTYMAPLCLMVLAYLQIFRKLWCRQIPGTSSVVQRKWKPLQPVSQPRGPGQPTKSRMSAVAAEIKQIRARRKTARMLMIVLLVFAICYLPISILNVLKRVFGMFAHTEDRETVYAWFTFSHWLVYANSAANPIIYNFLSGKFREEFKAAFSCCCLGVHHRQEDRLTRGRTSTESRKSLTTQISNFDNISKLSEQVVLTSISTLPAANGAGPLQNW
- experimental.protocol: Intracellular calcium measurement (FLIPR), antagonism of Orexin-A at EC80 in CHO-hOX2 cells
All answers are understood in nM, so give the number only.

Challenge: Using the record for Cc1nc(C(=O)N2C3CC(C3)C(C)C2COc2ccc(F)cc2)c(-c2ccccc2)s1 (mixture of isomers) , report its Ki.
Response given: 282

Challenge: Using the record for Cc1ccc(-c2ncccn2)c(C(=O)N2C3CC(C3)[C@H](C)[C@@H]2COc2ccc(F)cn2)n1 (single isomer, unassigned) , report its Ki.
Response given: 58.9

Challenge: Using the record for Cc1nc(C(=O)N2C3CC(C3)[C@H](C)[C@@H]2COc2ccc(F)cc2)c(-c2ccccc2)s1 (single isomer, unassigned) , report its Ki.
Response given: 138

Challenge: Using the record for Cc1nc(C(=O)N2C3CC(C3)[C@@H](C)[C@@H]2COc2ccc(F)cc2)c(-c2ccccc2)s1 (single isomer, unassigned) , report its Ki.
Response given: 562

Challenge: Using the record for Cc1ccc(-c2ncccn2)c(C(=O)N2C3CC(C3)[C@@H](C)[C@@H]2COc2ccc(F)cn2)n1 (single isomer, unassigned) , report its Ki.
Response given: 2240

Challenge: Using the record for Cc1ccc(-n2nccn2)c(C(=O)N2C(COc3ccc(F)cn3)CC3CC2C3)c1 (single isomer, unassigned) , report its Ki.
Response given: 617

====

Assign OX1 pKi (SPA binding) to each entry below.
- target: human Orexin type 1 receptors (Homo sapiens (Human), UniProt O43613)
- Sequence (O43613 whole entry): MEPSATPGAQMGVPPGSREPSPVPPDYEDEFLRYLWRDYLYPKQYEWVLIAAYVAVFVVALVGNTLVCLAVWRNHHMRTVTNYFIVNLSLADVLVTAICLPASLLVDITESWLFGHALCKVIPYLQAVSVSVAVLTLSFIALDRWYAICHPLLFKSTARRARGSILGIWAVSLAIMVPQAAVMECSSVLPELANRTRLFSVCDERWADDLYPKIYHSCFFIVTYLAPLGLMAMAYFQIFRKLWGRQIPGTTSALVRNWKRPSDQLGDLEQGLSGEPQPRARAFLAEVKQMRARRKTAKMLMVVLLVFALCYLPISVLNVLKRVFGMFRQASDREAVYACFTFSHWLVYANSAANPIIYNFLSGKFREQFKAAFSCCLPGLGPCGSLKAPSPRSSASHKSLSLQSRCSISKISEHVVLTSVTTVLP
- experimental.protocol: Scintillation Proximity Assay (SPA) binding assay, [3H]SB-674042 displacement, CHO-hOX1 membranes
- cond: Table 1, [3H]SB-674042 2 nM
Lab note: jot down the number only; don't add units.

Challenge: What measured OX1 pKi (SPA binding) is associated with Cc1nc(C(=O)N2C(COc3ccc4ccccc4n3)CC3CC2C3)c(-c2ccccc2)s1 (stereo not shown) [Example 56] on human Orexin type 1 receptors (Homo sapiens (Human), UniProt O43613)?
Response given: 7.98

Challenge: What measured OX1 pKi (SPA binding) is associated with Cc1ccc(-c2nccs2)c(C(=O)N2C3CC(C3)[C@@H](C)C2COc2ccc(F)cc2)n1 (mixture of isomers) [Example 96] on human Orexin type 1 receptors (Homo sapiens (Human), UniProt O43613)?
Response given: 8.18

Challenge: What measured OX1 pKi (SPA binding) is associated with Cc1ccc(-n2nccn2)c(C(=O)N2C3CC(C3)[C@@H](C)C2COc2ccc(Cl)cn2)n1 (stereo partly shown) [Example 99] on human Orexin type 1 receptors (Homo sapiens (Human), UniProt O43613)?
Response given: 7.37

Challenge: What measured OX1 pKi (SPA binding) is associated with Cc1nc(C(=O)N2C(COc3cnc4ccccc4n3)CC3CC2C3)c(-c2ccccc2)s1 (stereo not shown) [Example 58] on human Orexin type 1 receptors (Homo sapiens (Human), UniProt O43613)?
Response given: 7.4

Challenge: What measured OX1 pKi (SPA binding) is associated with Cc1nc(C(=O)N2C(COc3ccc(F)cc3)CC3CC2C3)c(-c2ccc(F)cc2)s1 (stereo not shown) [Example 50] on human Orexin type 1 receptors (Homo sapiens (Human), UniProt O43613)?
Response given: 7.66

Challenge: What measured OX1 pKi (SPA binding) is associated with Cc1nc(C(=O)N2C(COc3ccc(Br)cc3)CC3CC2C3)c(-c2ccccc2)s1 (stereo not shown) [Example 46] on human Orexin type 1 receptors (Homo sapiens (Human), UniProt O43613)?
Response given: 7.62

Challenge: What measured OX1 pKi (SPA binding) is associated with Cc1nc(C(=O)N2C(COc3ccc(Cl)cc3)CC3CC2C3)c(-c2ccccc2)s1 (stereo not shown) [Example 49] on human Orexin type 1 receptors (Homo sapiens (Human), UniProt O43613)?
Response given: 7.88

Challenge: What measured OX1 pKi (SPA binding) is associated with Cc1ccc(OCC2CC3CC(C3)N2C(=O)c2nc(C)sc2-c2ccccc2)cc1 (stereo not shown) [Example 48] on human Orexin type 1 receptors (Homo sapiens (Human), UniProt O43613)?
Response given: 7.45

Challenge: What measured OX1 pKi (SPA binding) is associated with Cc1ccc(-n2nccn2)c(C(=O)N2C(COc3ccc(F)cc3)CC3CC2C3)n1 (stereo not shown) [Example 39] on human Orexin type 1 receptors (Homo sapiens (Human), UniProt O43613)?
Response given: 7.64

Challenge: What measured OX1 pKi (SPA binding) is associated with Cc1ccc(-n2nccn2)c(C(=O)N2C3CC(C3)[C@H](C)C2COc2ccc(F)cc2)c1 (stereo partly shown) [Example 109] on human Orexin type 1 receptors (Homo sapiens (Human), UniProt O43613)?
Response given: 7.51

Challenge: What measured OX1 pKi (SPA binding) is associated with Cc1ccc(-n2nccn2)c(C(=O)N2C3CC(C3)[C@H](C)C2COc2ccc(Cl)cn2)n1 (stereo partly shown) [Example 102] on human Orexin type 1 receptors (Homo sapiens (Human), UniProt O43613)?
Response given: 7.23

Challenge: What measured OX1 pKi (SPA binding) is associated with Cc1ccc(-c2nccs2)c(C(=O)N2C3CC(C3)[C@H](C)C2COc2ccc(F)cc2)n1 (mixture of isomers) [Example 106] on human Orexin type 1 receptors (Homo sapiens (Human), UniProt O43613)?
Response given: 8.16

Challenge: What measured OX1 pKi (SPA binding) is associated with Cc1nc(C(=O)N2C(COc3ncc4ccn(C)c4n3)CC3CC2C3)c(-c2ccccc2)s1 (stereo not shown) [Example 57] on human Orexin type 1 receptors (Homo sapiens (Human), UniProt O43613)?
Response given: 7.35

Challenge: What measured OX1 pKi (SPA binding) is associated with Cc1nc(C(=O)N2C3CC(C3)[C@H](F)[C@H]2COc2ccc(F)cn2)c(-c2ccccc2)s1 (single isomer, unassigned) [Example 63] on human Orexin type 1 receptors (Homo sapiens (Human), UniProt O43613)?
Response given: 8.06

Challenge: What measured OX1 pKi (SPA binding) is associated with Cc1nc(C(=O)N2C(COc3ccc(F)cc3)CC3CC2C3)c(-c2ccccc2)s1 (racemic) [Example 1] on human Orexin type 1 receptors (Homo sapiens (Human), UniProt O43613)?
Response given: 8.14

Challenge: What measured OX1 pKi (SPA binding) is associated with Cc1nc(C(=O)N2C(COc3ccccc3F)CC3CC2C3)c(-c2ccccc2)s1 (stereo not shown) [Example 45] on human Orexin type 1 receptors (Homo sapiens (Human), UniProt O43613)?
Response given: 7.22

Challenge: What measured OX1 pKi (SPA binding) is associated with Cc1ccc(-c2nccs2)c(C(=O)N2C3CC(C3)[C@@H](C)C2COc2ccc(F)cc2)c1 (mixture of isomers) [Example 98] on human Orexin type 1 receptors (Homo sapiens (Human), UniProt O43613)?
Response given: 7.86

Challenge: What measured OX1 pKi (SPA binding) is associated with Cc1ccc(-n2nccn2)c(C(=O)N2C3CC(C3)[C@H](C)C2COc2ccc(F)c(F)c2)n1 (mixture of isomers) [Example 111] on human Orexin type 1 receptors (Homo sapiens (Human), UniProt O43613)?
Response given: 7.53

Challenge: What measured OX1 pKi (SPA binding) is associated with Cc1ccc(-n2nccn2)c(C(=O)N2C3CC(C3)[C@@H](C)C2COc2ccc(F)cc2)n1 (stereo partly shown) [Example 95] on human Orexin type 1 receptors (Homo sapiens (Human), UniProt O43613)?
Response given: 8.09

Challenge: What measured OX1 pKi (SPA binding) is associated with O=C(c1nc(Cl)sc1-c1ccccc1)N1C(COc2ccc(F)cc2)CC2CC1C2 (stereo not shown) [Example 51] on human Orexin type 1 receptors (Homo sapiens (Human), UniProt O43613)?
Response given: 7.22

Challenge: What measured OX1 pKi (SPA binding) is associated with Cc1nc(C(=O)N2C3CC(C3)[C@@H](C)C2COc2ccc(F)cc2)c(-c2ncccn2)s1 (stereo partly shown) [Example 94] on human Orexin type 1 receptors (Homo sapiens (Human), UniProt O43613)?
Response given: 8.04

Challenge: What measured OX1 pKi (SPA binding) is associated with Cc1nc(C(=O)N2C(CNc3nc4ccc(F)cc4s3)CC3CC2C3)c(-c2ccccc2)s1 (stereo not shown) [Example 61] on human Orexin type 1 receptors (Homo sapiens (Human), UniProt O43613)?
Response given: 9.12

Challenge: What measured OX1 pKi (SPA binding) is associated with Cc1nc(C(=O)N2C(COc3ccc(C(F)(F)F)cn3)CC3CC2C3)c(-c2ccccc2)s1 (stereo not shown) [Example 55] on human Orexin type 1 receptors (Homo sapiens (Human), UniProt O43613)?
Response given: 7.38

Challenge: What measured OX1 pKi (SPA binding) is associated with Cc1nc(C(=O)N2C(CNc3cc4ccccc4cn3)CC3CC2C3)c(-c2ccccc2)s1 (stereo not shown) [Example 59] on human Orexin type 1 receptors (Homo sapiens (Human), UniProt O43613)?
Response given: 8.1

Challenge: What measured OX1 pKi (SPA binding) is associated with Cc1nc(C(=O)N2C(CNc3ccc4ccccc4n3)CC3CC2C3)c(-c2ccccc2)s1 (stereo not shown) [Example 60] on human Orexin type 1 receptors (Homo sapiens (Human), UniProt O43613)?
Response given: 8.27

Challenge: What measured OX1 pKi (SPA binding) is associated with Cc1ccc(-n2nccn2)c(C(=O)N2C3CC(C3)[C@H](C)C2COc2nc3ccc(F)cc3s2)n1 (stereo partly shown) [Example 110] on human Orexin type 1 receptors (Homo sapiens (Human), UniProt O43613)?
Response given: 7

Challenge: What measured OX1 pKi (SPA binding) is associated with O=C(c1nc(C2CC2)sc1-c1ccccc1)N1C(COc2ccc(F)cc2)CC2CC1C2 (stereo not shown) [Example 53] on human Orexin type 1 receptors (Homo sapiens (Human), UniProt O43613)?
Response given: 7.58

Challenge: What measured OX1 pKi (SPA binding) is associated with Cc1nc(C(=O)N2C(COc3ccc(F)c(F)c3)CC3CC2C3)c(-c2ccccc2)s1 (stereo not shown) [Example 47] on human Orexin type 1 receptors (Homo sapiens (Human), UniProt O43613)?
Response given: 7.61

Challenge: What measured OX1 pKi (SPA binding) is associated with Cc1ccc(-n2nccn2)c(C(=O)N2C3CC(C3)[C@H](C)C2COc2ccc(F)cc2)n1 (stereo partly shown) [Example 103] on human Orexin type 1 receptors (Homo sapiens (Human), UniProt O43613)?
Response given: 8

Challenge: What measured OX1 pKi (SPA binding) is associated with Cc1nc(C(=O)N2C(COc3cc4ccccc4cn3)CC3CC2C3)c(-c2ccccc2)s1 (stereo not shown) [Example 38] on human Orexin type 1 receptors (Homo sapiens (Human), UniProt O43613)?
Response given: 7.61

Challenge: What measured OX1 pKi (SPA binding) is associated with Cc1ccc(-n2nccn2)c(C(=O)N2C3CC(C3)[C@@H](C)C2COc2ccc(F)cc2)c1 (stereo partly shown) [Example 97] on human Orexin type 1 receptors (Homo sapiens (Human), UniProt O43613)?
Response given: 7.74

All figures here come from patent US11660293B2.
